METHOD SUMMARY: compound effects on differentiated 3T3-L1 adipocyte viability – cell-based, 3T3-L1 adipocytes, calcein-AM fluorescence, 48 h, basal, profiling panel (AID 1163); note: test concentration not given here
DETAILS: 3T3-L1 adipocytes viability, higher = more signal
Reported z-score values for the following compounds.
Kindly provide the number alone.

Examples from the recorded data:
CC(C)(C)OC(=O)CC[C@@]1(C(=O)N2CCOCC2)N=C(c2ccc(OCCCO)cc2)O[C@@H]1c1ccccc1N=[N+]=[N-] : 0.122
C=C[C@@H](C)[C@@H](OC(=O)Nc1ccc(OC)cc1)c1ccc(O)c2ccccc12 : -0.336
NC(=O)[C@]1(Cc2ccccc2)N=C(c2ccc(OCCCO)cc2)O[C@@H]1c1ccccc1 : 0.879
O=C1OCCC/C=C\[C@H]2OC34C=CCN(CCN5CCOCC5)C(=O)[C@H]3N(CCO)C(=O)[C@@H]4C12 (stereo partly specified) : 1.72
C=C(CCCC)C(=O)CC[C@H](OC(C)=O)c1ccc(CO)o1 : 1.87
COc1ccc([Si](C)(C)[C@H]2[C@H](CC(=O)N3CCC[C@H]3CO)O[C@@]3(C(=O)N(c4ccccc4)c4ccccc43)[C@@H]2C)cc1 : 0.42

Q: Name the recorded z-score for `CN(C)CCCC[C@@H]1NC(=O)[C@@H]2C[C@H](C(=O)NCCCCCCN)[C@H](c3ccc(O)cc3)N2C1=O` .
Ans: 0.958

Q: Name the recorded z-score for `O=[N+]([O-])c1ccc(C[n+]2ccc(CCCO)cc2)o1` .
Ans: 1.01

Q: Name the recorded z-score for C=C(C)[C@@H]1CC=C(C(O)C2C=CC3C(=O)N(Cc4ccccc4)C(=O)C3N2n2cnnc2)CC1 (stereo partly specified) .
Ans: 0.233
